Assay: yeast display, Sf9 membrane polyspecificity reagent, FACS + sequencing; frameworks hold sequencing errors
endpointName: polyreactivity (PSR sort gate)

biopolymersequence=QVQLVESGGGLVQAGGSLRLSCAASGFTFRGNAMGWYRQAPGKERELVATISRGGNTNYADSVKGRFTISRDNAKNTVYLQMNSLKPEDTAVYYCAAVSYIRSKVAYNYWGQGTQVTVSS assayresult="low polyreactivity"
biopolymersequence=QVQLVESGGGLVQAGGSHRLSSAASGLTFGGNAMGWYRQAPGKERELVAGISSSGNTNYADSVKGRFTISRDNAKNTVYLQMNSLKPEDTAVYYCAADENITYPVYDMYDWGQGTQVTVSS assayresult="low polyreactivity"
